biological target: Polyunsaturated fatty acid 5-lipoxygenase (Homo sapiens) (UniProt P09917); test: Inhibition of human recombinant 5-LOX expressed in insect cells assessed residual activity using arachidonic acid at 42 uM as substrate preincubated for 5 mins followed by substrate addition measured after 20 mins in dark by ferric ion oxidation-xylenol orange method relative to control
Sequence (P09917 whole entry): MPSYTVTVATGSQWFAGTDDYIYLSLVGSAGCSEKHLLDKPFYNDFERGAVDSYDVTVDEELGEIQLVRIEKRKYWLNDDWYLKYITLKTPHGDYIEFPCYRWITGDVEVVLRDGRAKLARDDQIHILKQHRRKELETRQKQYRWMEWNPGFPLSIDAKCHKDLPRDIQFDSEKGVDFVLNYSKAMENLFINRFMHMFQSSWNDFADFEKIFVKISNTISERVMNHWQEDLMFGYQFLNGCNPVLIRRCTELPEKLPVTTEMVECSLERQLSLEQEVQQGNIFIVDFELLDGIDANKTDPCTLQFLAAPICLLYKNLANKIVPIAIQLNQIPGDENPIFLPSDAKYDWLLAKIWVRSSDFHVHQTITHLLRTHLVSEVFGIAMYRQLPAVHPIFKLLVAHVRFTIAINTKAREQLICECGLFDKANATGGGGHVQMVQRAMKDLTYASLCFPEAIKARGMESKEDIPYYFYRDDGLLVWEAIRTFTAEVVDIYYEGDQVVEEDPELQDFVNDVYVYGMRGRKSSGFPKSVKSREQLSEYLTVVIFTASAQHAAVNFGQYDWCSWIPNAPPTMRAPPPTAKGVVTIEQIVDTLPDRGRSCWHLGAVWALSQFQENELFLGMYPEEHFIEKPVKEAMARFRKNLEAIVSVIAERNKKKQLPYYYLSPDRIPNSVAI
property-measured: Activity (%)

The examples below pair each entry with its known result.
1. C[C@H]1[C@H](C)CC[C@]2(C)CC[C@]3(C)C(=CC[C@@H]4[C@@]5(C)CC[C@@H](O)[C@](C)(C(=O)O)[C@@H]5CC[C@]43C)[C@H]12 [BOSWELLIC ACID] | 53.4
2. CC1(C)CC[C@]2(C)CC[C@]3(C)C(=CC[C@@H]4[C@@]5(C)CCC(=O)C(C)(C)[C@@H]5CC[C@]43C)[C@@H]2C1 | 100
3. CC1(C)CC[C@]2(C(=O)O)CC[C@]3(C)C(=CC[C@@H]4[C@@]5(C)CC[C@H](O)[C@@](C)(C(=O)O)[C@@H]5CC[C@]43C)[C@@H]2C1 | 86
4. CC1(C)CC[C@]2(C(=O)O)CC[C@]3(C)C(=CC[C@@H]4[C@@]5(C)CC[C@H](O)[C@@](C)(CO)[C@@H]5CC[C@]43C)[C@@H]2C1 [HEDERAGENIN] | 59.8

A = CC(=O)O[C@@H]1CC[C@@]2(C)[C@@H](CC[C@]3(C)[C@@H]2CC=C2[C@@H]4[C@@H](C)[C@H](C)CC[C@]4(C)CC[C@]23C)[C@@]1(C)C(=O)O
B = CC1(C)CC[C@]2(C(=O)O)CC[C@]3(C)C(=CC[C@@H]4[C@@]5(C)CC[C@H](O)[C@@](C)(C=O)[C@@H]5CC[C@]43C)[C@@H]2C1
Among A and B , which shows a numerically higher Activity result? Returns: label corresponding to the selected item. B

* * *

biological target: Polyunsaturated fatty acid lipoxygenase ALOX15B (Homo sapiens); experiment: Inhibition of human recombinant N-terminal His-tagged 15-LOX2 expressed in Escherichia coli assessed as residual activity at 42 uM using arachidonic acid as substrate preincubated for 5 mins followed by substrate addition measured after 20 mins in dark by ferric ion oxidation-xylenol orange assay relative to control
Known Activity of a selection of compounds
Report the value in % with no unit label.

The examples below pair each entry with its known result.
1. CC1(C)[C@@H](O)CC[C@]2(C)[C@H]3CC=C4[C@@H]5C[C@@](C)(CO)CC[C@]5(C)CC[C@@]4(C)[C@]3(C)CC[C@@H]12 | 100
2. CC1(C)[C@@H](O)CC[C@]2(C)[C@H]3CC=C4[C@@H]5C[C@@](C)(C(=O)O)CC[C@]5(C)CC[C@@]4(C)[C@]3(C)CC[C@@H]12 | 100

Now turn to the next compound.
Specify measured Activity for `CC1(C)CC[C@]2(C(=O)O)CC[C@]3(C)C(=CC[C@@H]4[C@@]5(C)CC[C@H](O)[C@@](C)(C=O)[C@@H]5CC[C@]43C)[C@@H]2C1` . 100

* * *

target: Prostaglandin G/H synthase 2 (Homo sapiens, UniProt P35354); experiment: biochemical; type: cell-based, Sf21; conditions: sf21;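 also: recombinant enzyme produced in baculovirus-infected Sf21 cells, arachidonic acid substrate, PGE2 output quantified by LC-MS after 45 min, compounds preincubated 10 min beforehand, lower PGE2 means inhibition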
Sequence (P35354 whole entry): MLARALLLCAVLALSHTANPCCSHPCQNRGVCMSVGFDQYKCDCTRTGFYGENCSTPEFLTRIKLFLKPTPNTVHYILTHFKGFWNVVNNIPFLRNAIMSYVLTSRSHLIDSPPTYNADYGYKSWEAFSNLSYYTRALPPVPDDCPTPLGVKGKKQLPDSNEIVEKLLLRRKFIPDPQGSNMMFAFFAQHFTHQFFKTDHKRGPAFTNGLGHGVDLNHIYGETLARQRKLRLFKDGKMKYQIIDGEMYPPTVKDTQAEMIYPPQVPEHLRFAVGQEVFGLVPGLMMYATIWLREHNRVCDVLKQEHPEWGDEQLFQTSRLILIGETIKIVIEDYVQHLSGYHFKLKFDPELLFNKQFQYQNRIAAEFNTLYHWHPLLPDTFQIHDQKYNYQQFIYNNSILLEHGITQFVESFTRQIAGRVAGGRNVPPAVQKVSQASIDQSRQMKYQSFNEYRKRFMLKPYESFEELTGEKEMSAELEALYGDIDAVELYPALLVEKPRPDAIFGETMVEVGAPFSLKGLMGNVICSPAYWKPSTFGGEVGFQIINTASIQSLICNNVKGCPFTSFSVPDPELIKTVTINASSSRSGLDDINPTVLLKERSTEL
Description: Inhibition of human recombinant COX2 expressed in baculovirus infected sf21 cells assessed as decrease in PGE2 formation using arachidonic acid as substrate preincubated for 10 mins followed by substrate addition measured after 45 mins by LC-MS analysis
property-measured: IC50

1) CC1(C)CC[C@]2(C(=O)O)CC[C@]3(C)C(=CC[C@@H]4[C@@]5(C)CC[C@H](O)[C@@](C)(C=O)[C@@H]5CC[C@]43C)[C@@H]2C1 | Not Active
2) C[C@H]1[C@H](C)CC[C@]2(C)CC[C@]3(C)C(=CC[C@@H]4[C@@]5(C)CC[C@H](O)C(C)(C)[C@@H]5CC[C@]43C)[C@H]12 | Not Active
3) CC1(C)CC[C@]2(C)CC[C@]3(C)C(=CC[C@@H]4[C@@]5(C)CC[C@H](O)[C@](C)(CO)[C@@H]5CC[C@]43C)[C@@H]2C1 | Not Active
